Hey, just so you know, these numbers are from patent US20110250203A1.

Reported kon values for the following binders.
- TESTED_SYSTEM: T1, Recombinant human CD5 extracellular domain (CD5-ECD) (human, UniProt P06127 25-372)
- T1 construct: In-house protein made as CD5-ECD - TEV site - hGH fusion; CD5-ECD isolated by TEV cleavage and nickel column; also called CD5-ECD protein
- T1 sequence: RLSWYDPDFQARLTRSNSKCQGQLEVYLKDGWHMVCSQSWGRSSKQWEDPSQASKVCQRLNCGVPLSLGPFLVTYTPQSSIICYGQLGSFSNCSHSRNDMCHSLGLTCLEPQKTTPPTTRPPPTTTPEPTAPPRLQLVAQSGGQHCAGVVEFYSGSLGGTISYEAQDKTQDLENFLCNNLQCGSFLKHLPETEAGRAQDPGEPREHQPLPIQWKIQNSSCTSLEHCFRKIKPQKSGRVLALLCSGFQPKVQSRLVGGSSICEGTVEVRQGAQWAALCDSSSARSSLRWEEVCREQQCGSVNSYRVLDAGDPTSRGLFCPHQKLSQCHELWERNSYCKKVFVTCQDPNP
- EXPERIMENT_NOTES: SPR (Biacore 2000), antibody captured by anti-human Fc, CD5-ECD in solution, 1:1 fit;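 also: CM5 chip, binding curves at four CD5-ECD concentrations fitted globally, with the signal of a non-CD5-binding control antibody subtracted as reference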
# output: numeric value plus its unit

Query: Consider the binder shown here: Anti-CD5 antibody 1 (1D8) (antibody, human IgG1, V domains shown, also called Ab1; Clone 1) VH: EVQLQESGPELVKPEASVKISCKASGYSFTGYTMNWVKQSHGKNLEWIGLINPYNGGTTYNQKFKGKATLTVDTSSSTAFMELLSLTSEDSAVYYCARDYYGSSPDFDY VL: DIVLTQSTSSLSASLGDRVTINCSASQGISNHLNWFQQKSDGTVKLLIYFTSSLHSGVPSRFSGSGSGTDYSLTISNLEPEDIAAYYCQQYSNLPYT What is its recorded kon?
Reply: 107000 M⁻¹ s⁻¹

Query: Report kon for Anti-CD5 antibody 11 (4E24) (antibody, human IgG1, V domains shown, also called Ab11; Clone 11) VH: EVQLKESGAELVRPGGSVKISCKGSGYTFTNFAIHWVKQSHIKTLEWIGLISTSSGDVSYNQKFKDKATMTVDKSSSTAYMELARLTSEDSAIYYCARHYGANNYFDY VL: EIVLTQSPTIMSASPGEQVTMTCRTNSSVSSSYLHWYQQKSGASPKLWIYGTSNLASGVPTRFSGSGSGTSYSLTISSVEAGDAATYFCQQYSGYPLT please.
Reply: 69900 M⁻¹ s⁻¹

Query: Fill blank: measured kon of the binder Anti-CD5 antibody 23 (2H11) (antibody, V domains shown, also called Ab23; Clone 23) VH: EVQLQQSGPELVKPGTSVKISCKASGYTFTDYYINWVKQKPGQGLEWIGWIYPGGGNTRYIERFKGKATLTVDTSSSTAYMQLSSLTSEDTAVYFCARNGYWYFDV VL: DIVLTQSPSSLTVTAGEKVTMSCKSSQSLLNQKNYLTWYQQKTGQPPKLLIYWASTRESGVPDRFTGSGSGTDFTLTISSVQAEDLAVYYCQNDYDYPYT is ____.
Reply: 21900 M⁻¹ s⁻¹

Query: Look up kon: Anti-CD5 antibody 18 (1E7) (antibody, human IgG1, V domains shown, also called Ab18; Clone 18) VH: QVQLKESGGGLVQPGGSLKLSCAASGFTFSNYGMSWVRQIPDKRLELVAAINSNGDITYDPDSVKGRFTISRDNANNSLFLQMRSLKSEDTAMYYCARGTAWFTYWGQGTLVT VL: DIVLTQSPASLSASVGETVIITCRASENIYSYLVWYQQKQGKSPQLLVYNAKTLAEGVPSRFSGSGSGTQFSLKINSLQSEDFGSYSCQHHYGYPYT
Reply: 160000 M⁻¹ s⁻¹

Query: Look up kon for this binder: Anti-CD5 antibody 9 (6M4) (antibody, human IgG1, V domains shown, also called Ab9; Clone 9) VH: QVQLKESGPELEKPGASVKISCKASGYSFTAYSMNWVKQNNGMSLEWIGSIDPYYGDTKYAQKFKGKATLTVDKASSTAYLQLKSLTSEDSAVYYCARRMITTGDWYFDV VL: HIVLTQSPSSLSASLGDRVTISCRASQDISTYLNWYQQKPDGTVKLLIFYTSRLHAGVPSRFSGSGSGTHHSLTISNLEQEDIATYFCQQGNSLPFT
Reply: 14200 M⁻¹ s⁻¹

Query: Look at this binder and give its reported kon. Anti-CD5 antibody 29 (8E15) (antibody, human IgG1, V domains shown, also called Ab29; Clone 29) VH: QVQLKESGADLVKPGASVKLSCTASGFNIKDTYMNWVKERPEQGLEWIGRIDPANGNTKYDPKFQGKATITADTSSNTGYLQLSSLTSEDTAVYYCASYDPDY VL: DIVLTQSPASLAASVGETVTITCRASENIYYNLAWYQQKQGKSPQLLIYNANSLEGGVPSRFSGSGSGTQYSMKINSMQPEDTATYFCKQAYDVPWT
Reply: 655000 M⁻¹ s⁻¹
